method-description: Tmax in Balb/c mouse at 50 mg/kg, po by LC-MS analysis
Assay type: ADME, organism-based
condition-label: in vivo
attribute-measured: Tmax (min)
Please state the figure in min; there is no need to write the unit.

Qu. Consider the compound "O=c1c(NCc2ccccn2)c(Nc2ccc3c(c2)OCO3)c1=O" and give its recorded Tmax.
Ans. 49.8

* * *

method-description: AUC (0 to infinity) in Balb/c mouse at 50 mg/kg, po by LC-MS analysis
Format: ADME, organism-based
Design: route oral, time infinity, dose 50 mg/kg
condition-label: in vivo
attribute-measured: AUC(0-inf)

Qu. Consider the compound "O=c1c(NCc2ccccn2)c(Nc2ccc3c(c2)OCO3)c1=O" and give its recorded AUC(0-inf).
Ans. 2200 ng·h/mL
